meta.source: patent US20240279318A1

Consider the following binders; for each one, report its Affinity increase.
- tgt: T1, AFP158/HLA-A*02:01 complex (human)
- T1 construct: biotinylated on the BSP by BirA for ELISA and panning; also called biotinylated AFP158/HLA-A*02:01 complex; Bio-AFP158
- measurement-protocol: SPR; vs AS170036 VL1VH1;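 further: crude scFv captured on sensor chip, peptide–HLA complex flowed over at several concentrations, KD estimated from association and dissociation kinetic rates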
Answers are plain numbers, in fold.

Provide reported Affinity increase for each item, in the same order as listed.
1. AS170036 VL1VH1-VHG108S (scFv) scFv: QSALTQPRSVSGSPGQSVTISCAGTSSDVGSENYVSWYQQHPGKAPKLMIYQVNKRASGVPDRFSGSKSGNTASLTISGLQAEDEADYYCASYRSSDHNIVFGGGTKLTVLGGGGSGGGGSGGGGSEVQLVESGGGLVQPGGSLRLSCAASGFTFSSYAMSWVRQAPGKGLEWVSTINSGTGSPYYADSVKGRFTISRDNSKNTLYLQMNSLRAEDTAVYYCAKNFFDGSWFLSPPAMDYWGQGTLVTVSSHHHHHH
2. AS170036 VL1VH1 HD102A (scFv) scFv: QSALTQPRSVSGSPGQSVTISCAGTSSDVGSENYVSWYQQHPGKAPKLMIYQVNKRASGVPDRFSGSKSGNTASLTISGLQAEDEADYYCASYRSSDHNIVFGGGTKLTVLGGGGSGGGGSGGGGSEVQLVESGGGLVQPGGSLRLSCAASGFTFSSYAMSWVRQAPGKGLEWVSTINSGTGSPYYADSVKGRFTISRDNSKNTLYLQMNSLRAEDTAVYYCAKNFFAGSWFLGPPAMDYWGQGTLVTVSSHHHHHH

[out]
1. 2.8
2. 0.4

[in] For AS170036 VL1VH1-VHG56F (scFv) scFv: QSALTQPRSVSGSPGQSVTISCAGTSSDVGSENYVSWYQQHPGKAPKLMIYQVNKRASGVPDRFSGSKSGNTASLTISGLQAEDEADYYCASYRSSDHNIVFGGGTKLTVLGGGGSGGGGSGGGGSEVQLVESGGGLVQPGGSLRLSCAASGFTFSSYAMSWVRQAPGKGLEWVSTINSGTFSPYYADSVKGRFTISRDNSKNTLYLQMNSLRAEDTAVYYCAKNFFDGSWFLGPPAMDYWGQGTLVTVSSHHHHHH , what is its reported Affinity increase?
[out] 2.3
